# protocol details: Metabolic stability in dog intestine microsomes assessed as half life
# Assay type: ADME, Canis lupus familiaris, Microsome
property name: half-life

compound="COC(=O)N[C@H](C(=O)N[C@@H](Cc1ccccc1)[C@H](CN(Cc1ccc(-c2ccccn2)cc1)NC(=O)[C@@H](NC(=O)OC)C(C)(C)C)OC(=O)OC(OC(=O)[C@@H](N)C(C)C)C(C)C)C(C)(C)C (stereo in doubt; 3s)" result="> 2 h"

====

# protocol details: Metabolic stability in dog intestine microsomes assessed as half life in presence of NADPH
# Assay type: ADME, Canis lupus familiaris, Microsome
property name: half-life (min)

compound="COC(=O)N[C@H](C(=O)N[C@@H](Cc1ccccc1)[C@H](CN(Cc1ccc(-c2ccccn2)cc1)NC(=O)[C@@H](NC(=O)OC)C(C)(C)C)OC(=O)OC(OC(=O)[C@@H](N)C(C)C)C(C)C)C(C)(C)C (stereo in doubt; 3s)" output_unit=min number=53

====

# protocol details: Ratio of AUC of Atazanavir in Sprague-Dawley rat at 3 ml/kg,po measured upto 24 hrs by UPLC-MS/MS analysis
# Type: ADME
# applied conditions: in vivo
property name: Ratio

molecule="CN[C@H](C(=O)OC(OC(=O)O[C@@H](CN(Cc1ccc(-c2ccccn2)cc1)NC(=O)[C@@H](NC(=O)OC)C(C)(C)C)[C@H](Cc1ccccc1)NC(=O)[C@@H](NC(=O)OC)C(C)(C)C)C(C)C)C(C)C (stereo in doubt; 5e)" number=0.13
molecule="COC(=O)N[C@H](C(=O)N[C@@H](Cc1ccccc1)[C@H](CN(Cc1ccc(-c2ccccn2)cc1)NC(=O)[C@@H](NC(=O)OC)C(C)(C)C)OC(=O)OC(OC(=O)[C@H](N)C(C)C)C(C)C)C(C)(C)C (stereo in doubt; 5j)" number=0.02

====

# protocol details: Tmax in Sprague-Dawley rat at 30 ml/kg,po measured upto 24 hrs by UPLC-MS/MS analysis
# Type: ADME
# applied conditions: in vivo
property name: Tmax (h)

compound="COC(=O)N[C@H](C(=O)N[C@@H](Cc1ccccc1)[C@H](CN(Cc1ccc(-c2ccccn2)cc1)NC(=O)[C@@H](NC(=O)OC)C(C)(C)C)OC(=O)OC(OC(=O)[C@@H](NC(=O)[C@H](N)C(C)C)C(C)C)C(C)C)C(C)(C)C (stereo in doubt; 6h)" number=3
compound="COC(=O)N[C@H](C(=O)N[C@@H](Cc1ccccc1)[C@H](CN(Cc1ccc(-c2ccccn2)cc1)NC(=O)[C@@H](NC(=O)OC)C(C)(C)C)OC(=O)OC(OC(=O)[C@@H](N)C(C)C)C(C)C)C(C)(C)C (stereo in doubt; 3s)" number=0.8
compound="COC(=O)N[C@H](C(=O)N[C@@H](Cc1ccccc1)[C@H](CN(Cc1ccc(-c2ccccn2)cc1)NC(=O)[C@@H](NC(=O)OC)C(C)(C)C)OC(=O)OC(OC(=O)[C@H](C(C)C)N(C)C)C(C)C)C(C)(C)C (stereo in doubt; 5h)" number=3

====

# protocol details: Aqueous stability of the compound in phosphate buffer at pH 6.5 assessed as compound half life measured after 24 hrs by UPLC analysis
# Format: physicochemical
# applied conditions: buffer, pH 6.5, 24 h, 24 h
Please note: t1/2 exactly at 10 h is 0.0. Only values below 10 h get 1.0.

compound="COC(=O)N[C@H](C(=O)N[C@@H](Cc1ccccc1)[C@H](CN(Cc1ccc(-c2ccccn2)cc1)NC(=O)[C@@H](NC(=O)OC)C(C)(C)C)OC(=O)OC(OC(=O)[C@@H](N)C(C)C)C1CCCCC1)C(C)(C)C (stereo in doubt; 4n)" group=0.0
compound="COC(=O)N[C@H](C(=O)N[C@@H](Cc1ccccc1)[C@H](CN(Cc1ccc(-c2ccccn2)cc1)NC(=O)[C@@H](NC(=O)OC)C(C)(C)C)OC(=O)OC(OC(=O)[C@@H](N)C(C)C)C1CCCCC1)C(C)(C)C (stereo in doubt; 4o)" group=0.0
compound="COC(=O)N[C@H](C(=O)N[C@@H](Cc1ccccc1)[C@H](CN(Cc1ccc(-c2ccccn2)cc1)NC(=O)[C@@H](NC(=O)OC)C(C)(C)C)OC(=O)OC(OC(=O)[C@@H](NC(=O)[C@@H](N)C(C)C)C(C)C)C(C)C)C(C)(C)C (stereo in doubt; 6f)" group=0.0
compound="COC(=O)N[C@H](C(=O)N[C@@H](Cc1ccccc1)[C@H](CN(Cc1ccc(-c2ccccn2)cc1)NC(=O)[C@@H](NC(=O)OC)C(C)(C)C)OC(=O)OC(OC(=O)CCN)C(C)C)C(C)(C)C (stereo in doubt; 3aa)" group=0.0
compound="CN[C@H](C(=O)OC(OC(=O)O[C@@H](CN(Cc1ccc(-c2ccccn2)cc1)NC(=O)[C@@H](NC(=O)OC)C(C)(C)C)[C@H](Cc1ccccc1)NC(=O)[C@@H](NC(=O)OC)C(C)(C)C)C(C)C)C(C)C (stereo in doubt; 5f)" group=1.0
compound="COC(=O)N[C@H](C(=O)N[C@@H](Cc1ccccc1)[C@H](CN(Cc1ccc(-c2ccccn2)cc1)NC(=O)[C@@H](NC(=O)OC)C(C)(C)C)OC(=O)OC(OC(=O)[C@@H](N)C(C)C)C(C)(C)C)C(C)(C)C (stereo in doubt; 4m)" group=0.0
compound="CCC(C)C(OC(=O)O[C@@H](CN(Cc1ccc(-c2ccccn2)cc1)NC(=O)[C@@H](NC(=O)OC)C(C)(C)C)[C@H](Cc1ccccc1)NC(=O)[C@@H](NC(=O)OC)C(C)(C)C)OC(=O)[C@@H](N)C(C)C (mixture of isomers)" group=0.0
compound="COC(=O)N[C@H](C(=O)N[C@@H](Cc1ccccc1)[C@H](CN(Cc1ccc(-c2ccccn2)cc1)NC(=O)[C@@H](NC(=O)OC)C(C)(C)C)OC(=O)OC(OC(=O)[C@H](C)N)C(C)C)C(C)(C)C (stereo in doubt; 3q)" group=1.0

====

# protocol details: Tmax in Sprague-Dawley rat at 3 ml/kg,po measured upto 24 hrs by UPLC-MS/MS analysis
# Type: ADME
# applied conditions: in vivo, po, 24 h
Catalogue of molecules with associated Tmax
property name: Tmax

molecule="CN[C@H](C(=O)OC(OC(=O)O[C@@H](CN(Cc1ccc(-c2ccccn2)cc1)NC(=O)[C@@H](NC(=O)OC)C(C)(C)C)[C@H](Cc1ccccc1)NC(=O)[C@@H](NC(=O)OC)C(C)(C)C)C(C)C)C(C)C (stereo in doubt; 5e)" property_name=Tmax result="18 min"
molecule="COC(=O)N[C@H](C(=O)N[C@@H](Cc1ccccc1)[C@H](CN(Cc1ccc(-c2ccccn2)cc1)NC(=O)[C@@H](NC(=O)OC)C(C)(C)C)OC(=O)OC(OC(=O)[C@H](C)N)C(C)C)C(C)(C)C (stereo in doubt; 3q)" property_name=Tmax result="18 min"
molecule="CN[C@H](C(=O)OC(OC(=O)O[C@@H](CN(Cc1ccc(-c2ccccn2)cc1)NC(=O)[C@@H](NC(=O)OC)C(C)(C)C)[C@H](Cc1ccccc1)NC(=O)[C@@H](NC(=O)OC)C(C)(C)C)C(C)C)C(C)C (stereo in doubt; 5f)" property_name=Tmax result="42 min"
molecule="COC(=O)N[C@H](C(=O)N[C@@H](Cc1ccccc1)[C@H](CN(Cc1ccc(-c2ccccn2)cc1)NC(=O)[C@@H](NC(=O)OC)C(C)(C)C)OC(=O)OC(OC(=O)[C@@H](N)C(C)C)C1CCCCC1)C(C)(C)C (stereo in doubt; 4o)" property_name=Tmax result="18 min"

====

# protocol details: Metabolic stability in monkey intestine microsomes assessed as half life in presence of NADPH
# Type: ADME, Macaca mulatta, Microsome
# applied conditions: rhesus monkey
property name: half-life (min)

compound="COC(=O)N[C@H](C(=O)N[C@@H](Cc1ccccc1)[C@H](CN(Cc1ccc(-c2ccccn2)cc1)NC(=O)[C@@H](NC(=O)OC)C(C)(C)C)OC(=O)OC(OC(=O)[C@@H](N)C(C)C)C(C)C)C(C)(C)C (stereo in doubt; 3s)" property_name=half-life number=24

====

# protocol details: Ratio of AUC of Atazanavir in Sprague-Dawley rat at 3 ml/kg,po measured upto 24 hrs by UPLC-MS/MS analysis
# Type: ADME
# applied conditions: in vivo
property name: Ratio

molecule="COC(=O)N[C@H](C(=O)N[C@@H](Cc1ccccc1)[C@H](CN(Cc1ccc(-c2ccccn2)cc1)NC(=O)[C@@H](NC(=O)OC)C(C)(C)C)OC(=O)OC(OC(=O)[C@@H](N)CC(C)C)C(C)C)C(C)(C)C (stereo in doubt; 3t)" property_name=Ratio number=0
molecule="COC(=O)N[C@H](C(=O)N[C@@H](Cc1ccccc1)[C@H](CN(Cc1ccc(-c2ccccn2)cc1)NC(=O)[C@@H](NC(=O)OC)C(C)(C)C)OC(=O)OC(OC(=O)[C@@H](N)C(C)C)C1CCCCC1)C(C)(C)C (stereo in doubt; 4n)" property_name=Ratio number=2.47
molecule="COC(=O)N[C@H](C(=O)N[C@@H](Cc1ccccc1)[C@H](CN(Cc1ccc(-c2ccccn2)cc1)NC(=O)[C@@H](NC(=O)OC)C(C)(C)C)OC(=O)OC(OC(=O)C1(N)CC1)C(C)C)C(C)(C)C (stereo in doubt; 3y)" property_name=Ratio number=1.34
molecule="COC(=O)N[C@H](C(=O)N[C@@H](Cc1ccccc1)[C@H](CN(Cc1ccc(-c2ccccn2)cc1)NC(=O)[C@@H](NC(=O)OC)C(C)(C)C)OC(=O)OC(OC(=O)[C@@H](N)CC(C)C)C(C)C)C(C)(C)C (stereo in doubt; 3u)" property_name=Ratio number=0.13
